Test system: SK-OV-3
EXPERIMENTAL PROTOCOL: NCI tumour cell line growth inhibition, 48 h
Activity calls are given as the source filed them. No stated cut-off is given here; in the data, active = GI50 up to about 1.1 µM and inactive = higher.
Outcomes: active, inactive

{"columns": ["COMPOUND", "CAT"],
 "data": [
  ["Cc1ccc(S(=O)(=O)OC2C(O)C(O)OC2C(c2cc(O)c3c(c2O)C(=O)c2ccccc2C3=O)c2cc(O)c3c(c2O)C(=O)c2ccccc2C3=O)cc1 (centres undefined)", "inactive"],
  ["COc1cccc([C@H]2C/C(=N\\NC(=O)C(=O)N[C@@H](C)c3ccccc3)c3ccccc3N2)c1", "active"],
  ["Nn1c(=O)[nH]c2ncn(Cc3ccccc3)c2c1=O", "inactive"],
  ["CC(=O)OCC1OC(OCCCOP(=S)(OCCC#N)OCC2OC(n3ccc(N)nc3=O)C(OC(=O)c3ccccc3)C2OC(=O)c2ccccc2)C(OC(C)=O)C(OC(C)=O)C1OC(C)=O (centres undefined)", "inactive"],
  ["NCCCCNc1ccc2c(=O)[nH][nH]c(=O)c2c1", "inactive"],
  ["c1nc2cscc2c2cscc12", "inactive"],
  ["CCCCC(C(=O)NCCNC(=O)CCC(=O)N(C)O)C(=O)NCCNC(=O)CCC(=O)N(C)O", "inactive"],
  ["Cn1cc2ccccc2c1-c1nc(F)nc(Oc2ccc3c(c2)CC[C@@H]2C3CC[C@]3(C)C(O)CCC23)n1 (some centres undefined)", "inactive"],
  ["COc1cc2nc(-c3cccs3)nc(N3C(c4ccc(O)cc4)=NNC(=O)c4ccccc43)c2cc1OC", "inactive"]
]}
